- System under test: T1, canine TGFβ3 (canine, UniProt A0A8I3S1P1 346-457)
- T1 sequence: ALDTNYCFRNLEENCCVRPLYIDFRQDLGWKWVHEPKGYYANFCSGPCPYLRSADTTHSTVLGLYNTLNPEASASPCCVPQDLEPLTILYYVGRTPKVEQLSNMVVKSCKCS
- Procedure details: SPR, TGFβ on chip
Result type: Kd (nM)
Supply the numeric figure in nM, leaving out any unit text.

For the binder Can04H09 VH1/VL3 (antibody, V domains shown) VH: EVQLVQSGAEVKKPGASVKVSCKTSGYTFISSWMNWVRQAPGAGLDWMGQIYPGDGDTNYNGKFKGRVTLTADTSTSTAYMELSSLRAGDIAVYYCARHYDGSTDYWGQGTLVTVSS VL: EIVMTQSPASLSLSQEEKVTITCRASENIYSNLAWYQQKPGQAPKLLIYAATNLADGVPSRFSGSGSGTDFSFTISSLEPEDVAVYYCQHFWGTPYTFGQGTK , what Kd is on record?
6.52
